Values from patent US20030087906A1

- Tested on: HeLa S-3 cells
- method_description: Inhibition of cell growth of HeLa cells (SRB)
- Format: cell-based, human
- test_context: Homo sapiens, HeLa S3, 48 h, 2 days of treatment, replicate experiments

| compound | target | endpoint_unit | operator_symbol | GI50 |
| --- | --- | --- | --- | --- |
| CC(=O)N[C@H]1CC[C@H](Nc2nc(NCc3ccc(-c4cccnc4)cc3)c3ncn(C(C)C)c3n2)CC1 | HeLa S-3 cells | nM | = | 200 |
| COC(=O)c1ccc(-c2ccc(CNc3nc(N[C@H]4CC[C@H](N)CC4)nc4c3ncn4C(C)C)cc2)cc1 | HeLa S-3 cells | nM | = | 3000 |
| CC(C)n1cnc2c(NCc3ccc(-c4cccc(F)c4)nc3)nc(N[C@H]3CC[C@H](NC(=O)CNC(=O)OC(C)(C)C)CC3)nc21 | HeLa S-3 cells | nM | = | 300 |
| CC(=O)NCCCCNc1nc(NCc2ccc(-c3ccccc3)cc2)c2ncn(C(C)C)c2n1 | HeLa S-3 cells | nM | = | 5000 |
| CC(=O)N[C@H]1CC[C@H](Nc2nc(NCc3ccc(-c4ccc(Cl)cc4)cc3)c3ncn(C(C)C)c3n2)CC1 | HeLa S-3 cells | nM | = | 5000 |
| CC[C@H](CO)Nc1nc(NCc2ccc(-c3ccc(C(O)CO)cc3)cc2)c2ncn(C(C)C)c2n1 (stereo partly shown) | HeLa S-3 cells | nM | = | 7000 |
| CN1CC[C@H](c2c(O)cc(O)c3c(=O)cc(-c4ccccc4Cl)oc23)[C@H](O)C1 [Flavopiridol, reference compound] | HeLa S-3 cells | nM | = | 180 |
| CCCN(CCC)CCNc1nc(NCc2ccc(-c3ccccc3)cc2)c2ncn(C(C)C)c2n1 | HeLa S-3 cells | nM | = | 3000 |
| CC(=O)N[C@H]1CC[C@H](Nc2nc(NCc3ccc(-c4ccc(C(=O)O)cc4)cc3)c3ncn(C(C)C)c3n2)CC1 | HeLa S-3 cells | nM | > | 10000 |
| CC(C)n1cnc2c(NCc3ccc(-c4cccc(F)c4)nc3)nc(N[C@H]3CC[C@H](NC(=O)CN)CC3)nc21 | HeLa S-3 cells | nM | = | 500 |
| CC(=O)N[C@H]1CC[C@H](Nc2nc(NCc3ccc(-c4ccc(Cl)s4)cc3)c3ncn(C(C)C)c3n2)CC1 | HeLa S-3 cells | nM | = | 300 |
| CC(C)n1cnc2c(NCc3ccc(-c4ccc(C(=O)O)cc4)cc3)nc(N[C@H]3CC[C@H](N)CC3)nc21 | HeLa S-3 cells | nM | > | 10000 |
| CC(=O)N[C@H]1CCCC[C@@H]1Nc1nc(NCc2ccc(-c3ccccc3)cc2)c2ncn(C(C)C)c2n1 | HeLa S-3 cells | nM | = | 7000 |
| CC(C)n1cnc2c(NCc3ccc(-c4cccc(F)c4)nc3)nc(N[C@H]3CC[C@H](N)CC3)nc21 | HeLa S-3 cells | nM | = | 50 |
| CC(=O)N[C@H]1CC[C@H](Nc2nc(NCc3ccc(-c4ccccn4)nc3)c3ncn(C(C)C)c3n2)CC1 | HeLa S-3 cells | nM | = | 100 |
| CC[C@H](CO)Nc1nc(NCc2ccc(-c3cccc(C(F)(F)F)c3)cc2)c2ncn(C(C)C)c2n1 | HeLa S-3 cells | nM | = | 600 |
| Cn1cnc2c(NCc3ccccc3)nc(NCCO)nc21 [Olomoucine, reference compound] | HeLa S-3 cells | nM | = | 75000 |
| COc1ccc(OC)c(-c2ccc(CNc3nc(N[C@H]4CC[C@H](NC(C)=O)CC4)nc4c3ncn4C(C)C)cc2)c1 | HeLa S-3 cells | nM | = | 600 |
| CC(C)n1cnc2c(NCc3ccc(-c4cccc(F)c4)nc3)nc(N[C@H]3CC[C@H](NC(=O)[C@H](C)NC(=O)OC(C)(C)C)CC3)nc21 | HeLa S-3 cells | nM | = | 300 |
| CC(C)n1cnc2c(NCc3ccc(-c4ccco4)cc3)nc(N[C@H]3CC[C@H](N)CC3)nc21 | HeLa S-3 cells | nM | = | 40 |
| CC(=O)N[C@H]1CC[C@H](Nc2nc(NCc3ccc(-c4ccc(F)c(Cl)c4)cc3)c3ncn(C(C)C)c3n2)CC1 | HeLa S-3 cells | nM | = | 600 |
| CC[C@H](CO)Nc1nc(NCc2ccc(-c3cccc([N+](=O)[O-])c3)cc2)c2ncn(C(C)C)c2n1 | HeLa S-3 cells | nM | = | 300 |
| CC(=O)N[C@H]1CC[C@H](Nc2nc(NCc3ccc(-c4ccc(C)cc4)cc3)c3ncn(C(C)C)c3n2)CC1 | HeLa S-3 cells | nM | = | 3000 |
| CC[C@H](CO)Nc1nc(NCc2ccc(-c3ccccc3)cc2)c2ncn(C(C)C)c2n1 | HeLa S-3 cells | nM | = | 300 |
| CC(=O)N[C@H]1CC[C@H](Nc2nc(NCCOc3ccc(-c4ccccc4)cc3)c3ncn(C(C)C)c3n2)CC1 | HeLa S-3 cells | nM | > | 10000 |
| CC(C)n1cnc2c(NCc3ccc(-c4ccc(Cl)s4)cc3)nc(N[C@H]3CC[C@H](N)CC3)nc21 | HeLa S-3 cells | nM | = | 300 |
| CC[C@H](CO)Nc1nc(NCc2ccc(-c3cccc(N)c3)cc2)c2ncn(C(C)C)c2n1 | HeLa S-3 cells | nM | = | 20000 |
| Cc1csc(-c2ccc(CNc3nc(N[C@H]4CC[C@H](N)CC4)nc4c3ncn4C(C)C)cc2)c1 | HeLa S-3 cells | nM | = | 200 |
